- target_or_test_system: T1, human IL-11 (human, UniProt P20809 22-199)
- T1 sequence: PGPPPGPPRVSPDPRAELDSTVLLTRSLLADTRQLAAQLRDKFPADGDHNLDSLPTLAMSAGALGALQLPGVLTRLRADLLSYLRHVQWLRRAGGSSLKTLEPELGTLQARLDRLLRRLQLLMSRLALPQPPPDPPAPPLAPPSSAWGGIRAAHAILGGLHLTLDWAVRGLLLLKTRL
- protocol_details: cell-based or functional assay
observation_type: IC50, RGA (nM)
Kindly answer with a numeric value in nM, unit omitted.

# input For the binder TPP-31312 (antibody, IgG4, V domains shown, also called WT antibody; chimeric antibody) VH: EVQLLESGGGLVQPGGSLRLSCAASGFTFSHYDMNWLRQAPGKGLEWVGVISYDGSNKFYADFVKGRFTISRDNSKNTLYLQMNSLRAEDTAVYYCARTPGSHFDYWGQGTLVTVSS VL: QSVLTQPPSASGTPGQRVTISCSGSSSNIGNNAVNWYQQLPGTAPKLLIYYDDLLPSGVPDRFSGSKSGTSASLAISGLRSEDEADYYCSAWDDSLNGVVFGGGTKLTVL , report IC50, RGA.
# output 8.9

# input For the binder TPP-31322 (antibody, IgG4, V domains shown, hIgG4 SPLE, lambda; FB - 1, back mutation VL-S31N) VH: QVQLVESGGGVVQPGRSLRLSCAASGFTFSHYDMHWVRQAPGKGLEWVAVISYEGSNKFYADSVKGRFTISRDNSKNTLYLQMNSLRAEDTAVYYCARTPGSHFDYWGQGTLVTVSS VL: QSVLTQPPSASGTPGQRVTISCSGSSSNIGNNYVNWYQQLPGTAPKLLIYYDDLRPSGVPDRFSGSKSGTSASLAISGLRSEDEADYYCAAWDDSLSGVVFGGGTKLTVL , report IC50, RGA.
# output 1.7

# input For the binder TPP-31325 (antibody, human IgG4 S228P, lambda, V domains shown, hIgG4-SPLE, Lambda; also called final germline; FB with a back-mutation VL-A90S) VH: QVQLVESGGGVVQPGRSLRLSCAASGFTFSHYDMHWVRQAPGKGLEWVAVISYEGSNKFYADSVKGRFTISRDNSKNTLYLQMNSLRAEDTAVYYCARTPGSHFDYWGQGTLVTVSS VL: QSVLTQPPSASGTPGQRVTISCSGSSSNIGSNYVNWYQQLPGTAPKLLIYYDDLRPSGVPDRFSGSKSGTSASLAISGLRSEDEADYYCSAWDDSLSGVVFGGGTKLTVLG , report IC50, RGA.
# output 1.2

# input For the binder TPP-31324 (antibody, IgG4, V domains shown, hIgG4 SPLE, lambda; FB - 1, back mutation VL-R55L) VH: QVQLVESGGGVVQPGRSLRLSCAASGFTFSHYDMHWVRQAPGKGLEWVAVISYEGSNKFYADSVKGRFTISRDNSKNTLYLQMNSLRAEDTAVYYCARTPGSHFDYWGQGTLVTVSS VL: QSVLTQPPSASGTPGQRVTISCSGSSSNIGSNYVNWYQQLPGTAPKLLIYYDDLLPSGVPDRFSGSKSGTSASLAISGLRSEDEADYYCAAWDDSLSGVVFGGGTKLTVL , report IC50, RGA.
# output 2.9
